- TESTED SYSTEM: UniProt:Q15858
- EXPERIMENT DESCRIPTION: Electrophysiology (EP) assay, whole-cell patch clamp
- Assay type: cell-based
- APPLIED CONDITIONS: hNav1.7 expressing HEK-293 cells; affinity for inactivated state; read-out: Nav1.7 Activity (μM) EP assay Ki
MEASURE: Ki (µM)
Enter your answer as a number in µM; do not include the unit.

In: Reported Ki for NC(=O)c1cccc(-c2ccc3c(cnn3Cc3ccc(C(F)(F)F)cc3)c2)n1 [Compound 105] : what is it?
Out: 0.7

In: Requested field: Ki. Item: NC(=O)c1cc([C@@H](O)CO)cc(-c2ccc3c(ccn3Cc3ccc(C(F)(F)F)cc3)c2)n1 [Compound 120]
Out: 2.03

In: Return reported Ki; argument: NC(=O)[C@H](O)[C@@H](O)c1cccc(-c2ccc3c(ccn3CC3CC3)c2)n1 [Compound 154]
Out: 27.2

* * *

- TESTED SYSTEM: human Nav1.7 (Homo sapiens (Human))
- Sequence (Q15858 other isoform, or with tags, fused parts or gaps): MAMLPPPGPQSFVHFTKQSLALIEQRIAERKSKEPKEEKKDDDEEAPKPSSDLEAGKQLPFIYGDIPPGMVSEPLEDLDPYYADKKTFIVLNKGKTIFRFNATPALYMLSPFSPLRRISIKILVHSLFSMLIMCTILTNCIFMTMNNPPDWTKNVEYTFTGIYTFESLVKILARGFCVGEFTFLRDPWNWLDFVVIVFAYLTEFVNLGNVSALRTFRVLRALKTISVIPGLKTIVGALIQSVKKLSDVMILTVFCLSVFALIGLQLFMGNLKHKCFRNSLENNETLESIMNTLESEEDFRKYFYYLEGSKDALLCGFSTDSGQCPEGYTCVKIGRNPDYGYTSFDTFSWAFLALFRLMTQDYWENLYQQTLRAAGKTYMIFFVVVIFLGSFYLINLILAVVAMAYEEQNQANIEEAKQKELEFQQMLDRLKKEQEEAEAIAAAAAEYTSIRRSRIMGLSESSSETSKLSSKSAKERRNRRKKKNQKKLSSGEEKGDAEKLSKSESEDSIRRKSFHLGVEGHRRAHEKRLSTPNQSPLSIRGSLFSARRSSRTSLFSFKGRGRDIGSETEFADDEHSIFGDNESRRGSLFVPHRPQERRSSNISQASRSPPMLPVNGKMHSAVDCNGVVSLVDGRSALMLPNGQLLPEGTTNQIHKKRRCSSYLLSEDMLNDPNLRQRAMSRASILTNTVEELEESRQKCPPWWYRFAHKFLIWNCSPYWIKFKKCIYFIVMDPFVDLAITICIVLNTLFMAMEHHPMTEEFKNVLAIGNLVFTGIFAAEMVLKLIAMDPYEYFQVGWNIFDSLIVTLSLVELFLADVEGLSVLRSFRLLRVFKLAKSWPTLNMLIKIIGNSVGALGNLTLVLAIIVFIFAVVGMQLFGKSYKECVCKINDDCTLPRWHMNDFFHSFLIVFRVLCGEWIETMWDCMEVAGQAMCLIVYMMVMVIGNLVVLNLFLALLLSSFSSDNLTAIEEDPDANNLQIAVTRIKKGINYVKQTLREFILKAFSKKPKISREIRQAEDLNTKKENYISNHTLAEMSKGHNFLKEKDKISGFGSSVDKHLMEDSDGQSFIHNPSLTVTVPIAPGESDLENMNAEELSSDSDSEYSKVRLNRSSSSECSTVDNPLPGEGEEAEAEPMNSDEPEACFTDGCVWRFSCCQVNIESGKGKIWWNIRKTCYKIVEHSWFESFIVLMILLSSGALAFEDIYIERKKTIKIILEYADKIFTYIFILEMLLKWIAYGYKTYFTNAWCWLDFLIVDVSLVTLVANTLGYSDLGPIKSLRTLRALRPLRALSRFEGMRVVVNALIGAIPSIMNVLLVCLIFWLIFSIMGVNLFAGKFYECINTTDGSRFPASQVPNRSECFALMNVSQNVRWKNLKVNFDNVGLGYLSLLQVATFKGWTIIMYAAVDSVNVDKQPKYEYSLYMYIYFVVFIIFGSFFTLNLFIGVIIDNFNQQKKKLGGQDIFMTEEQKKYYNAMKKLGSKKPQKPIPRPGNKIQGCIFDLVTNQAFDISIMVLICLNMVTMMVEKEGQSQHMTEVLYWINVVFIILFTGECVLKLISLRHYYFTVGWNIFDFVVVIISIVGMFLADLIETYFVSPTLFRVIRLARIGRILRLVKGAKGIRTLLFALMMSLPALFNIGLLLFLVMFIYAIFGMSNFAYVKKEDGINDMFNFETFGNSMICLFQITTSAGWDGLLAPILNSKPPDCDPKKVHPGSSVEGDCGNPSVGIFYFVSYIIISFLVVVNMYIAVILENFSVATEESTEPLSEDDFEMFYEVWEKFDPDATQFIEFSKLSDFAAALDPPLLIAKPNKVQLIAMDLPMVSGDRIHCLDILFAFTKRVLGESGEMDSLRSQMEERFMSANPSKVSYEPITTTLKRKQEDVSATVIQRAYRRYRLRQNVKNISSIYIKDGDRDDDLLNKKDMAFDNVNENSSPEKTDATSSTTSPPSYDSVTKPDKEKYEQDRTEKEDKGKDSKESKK
- EXPERIMENT DESCRIPTION: FLIPR or FLIPR TETRA sodium dye assay for sodium channel blocking activity
- Format: cell-based
- APPLIED CONDITIONS: recombinant HEK293 cells expressing human Nav1.7
For each entry below, report its IC50 value.
Give the quantity in µM, number only.

In: I am curious: what IC50 value has been reported for O=C(NC1CCCCC1)c1cccc(-c2ccc3[nH]ccc3c2)n1 ?
Out: 0.167

In: Recorded IC50 for O=C(NCC1CCCCC1)c1cccc(-c2ccc3[nH]ccc3c2)n1 , please?
Out: 0.18

In: What value of IC50 has been reported for the following compound? O=C(Nc1ccc(C(F)(F)F)cc1)c1cc(N[C@H]2CCNC2=O)cc(-c2ccc3[nH]ccc3c2)n1
Out: 4.89

In: Look up IC50 for this compound: NC(=O)c1cccc(-c2ccc3c(ccn3S(=O)(=O)c3ccc(C(F)(F)F)cc3)c2)n1
Out: 0.658

In: Which IC50 is listed for OC[C@@H](O)c1cccc(-c2ccc3c(ccn3Cc3ccc(C(F)(F)F)cc3)c2)n1 ?
Out: 0.177

* * *

- TESTED SYSTEM: hNav1.7 (Homo sapiens (Human))
- Sequence (Q15858 other isoform, or with tags, fused parts or gaps): as above
- EXPERIMENT DESCRIPTION: Electrophysiology (EP) assay, whole-cell patch clamp
- Format: cell-based
- APPLIED CONDITIONS: hNav1.7 expressing HEK-293 cells; affinity for inactivated state; read-out: Nav1.7 Activity (μM) EP assay Ki
Field: label. Allowed values: met (Ki < 1 µM) or not met (Ki >= 1 µM).

In: Please indicate whether the reported Ki of OC[C@@H](O)c1cccc(-c2cnc3c(ccn3Cc3ccc(C(F)(F)F)cc3)c2)n1 [Compound 106] is strictly below 1 µM.
Out: met

In: Hello, is Ki of the following compound strictly smaller than 1 µM? O=C(Nc1ccc(C(F)(F)F)cc1)c1cc(N[C@H]2CCNC2=O)nc(-c2ccc3[nH]ccc3c2)n1 [Compound 78]
Out: not met

In: For this compound, is Ki lower than 1 µM? CC(C)Cn1ccc2cc(-c3cccc(S(=O)(=O)Nc4ncns4)n3)ccc21 [Compound 41]
Out: met

In: Please state whether Ki is below 1 µM for NC(=O)c1cc(N[C@H]2CCNC2=O)nc(-c2ccc3ncn(-c4ccc(C(F)(F)F)cc4)c3c2)n1 [Compound 44]
Out: not met

In: Given the entry CC(C)Cn1ccc2cc(-c3cccc([C@H](O)[C@@H](O)C(N)=O)n3)ccc21 [Compound 150] , would its reported Ki be below 1 µM?
Out: met

In: In the record for OC[C@@H](O)c1cccc(-c2ccc3c(cnn3Cc3ccc(C(F)(F)F)cc3)c2)n1 [Compound 107] , is Ki less than 1 µM?
Out: met

In: Lab note: confirm whether the reported Ki for this compound is below 1 µM, equality not counting. compound: CC(C)Cn1ncc2cc(-c3cccc([C@H](O)[C@@H](O)C(N)=O)n3)ccc21 [Compound 155]
Out: not met
